These data points were gathered from paper PMC11981937.

# Tested on: SARS-CoV-2 Delta variant
# Assay text: microbe, parasite or virus in culture
# Type: cell-based
# Experimental parameters: Severe acute respiratory syndrome coronavirus 2; SARS-CoV-2 Delta B.1.617.1
Reported endpoint: pEC50
Formally, pEC50 is defined as -log10 of the concentration c, with c in mol/L.

IN: Give the measured pEC50 of C[C@H]1Cn2ncc(C(=O)Nc3cccc(C#N)c3)c2C(=O)N1c1ccc(C(F)(F)c2ccccc2)cc1 .
OUT: 7.85

---

# System: SARS-CoV-2 (B1 variant)
# Assay text: microbe, parasite or virus in culture
# Assay type: cell-based
# Experimental parameters: Severe acute respiratory syndrome coronavirus 2, 48 h; read-out: EC50, production of viral RNA
Reported endpoint: pEC50
Formally, pEC50 is defined as -log10 of the concentration c, with c in mol/L.

IN: Give the measured pEC50 of CC(C)(C)[C@H](NC(=O)C(F)(F)F)C(=O)N1C[C@H]2[C@@H]([C@H]1C(=O)N[C@H](C#N)C[C@@H]1CCNC1=O)C2(C)C [nirmatrelvir, reference compound] .
OUT: 6.96

IN: Also need C[C@H]1Cn2ncc(C(=O)Nc3cccc(C#N)c3)c2C(=O)N1c1ccc(C(F)(F)c2ccccc2)cc1 , thanks.
OUT: 7.03
